# Ki per entry
targetDesc: human adenosine A3 receptor (CHO-K1-hA3R cells) (Homo sapiens, UniProt P0DMS8)
Construct: expressed in transfected cells
Sequence (P0DMS8 whole entry): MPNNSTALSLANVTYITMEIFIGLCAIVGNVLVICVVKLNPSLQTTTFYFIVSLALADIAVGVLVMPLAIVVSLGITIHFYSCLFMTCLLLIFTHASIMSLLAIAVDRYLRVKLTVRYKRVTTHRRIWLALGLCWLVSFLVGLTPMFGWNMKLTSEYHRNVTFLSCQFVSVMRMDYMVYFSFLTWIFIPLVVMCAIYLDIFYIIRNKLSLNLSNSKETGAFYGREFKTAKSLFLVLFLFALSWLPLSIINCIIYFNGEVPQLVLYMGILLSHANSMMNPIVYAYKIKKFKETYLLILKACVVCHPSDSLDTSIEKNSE
assayExplanation: Competitive real-time cell-binding studies (LigandTracer), displacement of [125I]-AB-MECA
details: 0.7 nM [125I]-AB-MECA, ambient temperature, Cheng-Prusoff, mean ± SEM, three independent experiments
Express your answer in nM, writing the number without its unit.

Past entries and their recorded results:
CCc1nc(-c2ccccc2)c(C(=O)OCCF)c(CC)c1C(=O)SCCF [(FE)^2@SUPPY]    8.05
CCCOC(=O)c1c(-c2ccccc2)nc(CC)c(C(=O)SCC)c1CCC [MRS1523, reference compound]    17.8
CCc1nc(-c2ccccc2)c(C(=O)OC)c(CC)c1C(=O)SC [(Me)^2@SUPPY]    46.1

Form field: reported Ki of CCSC(=O)c1c(CC)nc(-c2ccccc2)c(C(=O)OCCF)c1CC [FE@SUPPY]
8.51

Form field: reported Ki of CCc1nc(-c2ccccc2)c(C(=O)OC)c(CC)c1C(=O)SCCF [FEMe@SUPPY:2]
41.2

* * *

assayExplanation: HPLC-based measurement of the logarithm of the octanol-water partition coefficient (HPLClogD7.4)
Type: physicochemical
details: pH 7.4, HPLC-based assay; mean ± SEM of three independent experiments
Entry flag: Y if chromatographic logD reaches 4; N if it does not.

Before answering, review these 4 worked examples.
CCc1nc(-c2ccccc2)c(C(=O)OC)c(CC)c1C(=O)SCCF    N
CCc1nc(-c2ccccc2)c(C(=O)OC)c(CC)c1C(=O)SC    N
CCSC(=O)c1c(CC)nc(-c2ccccc2)c(C(=O)O)c1CC    N
CCOC(=O)C1=C(C)NC(c2ccccc2)=C(C(=O)OCc2ccccc2)C1C#Cc1ccccc1 (centres unmarked) [MRS1191, reference compound]    Y

Determine whether this compound has chromatographic logD no lower than 4: CCCOC(=O)c1c(-c2ccccc2)nc(CC)c(C(=O)SCC)c1CCC [MRS1523, reference compound]
Y

* * *

assayExplanation: HPLC-based measurement of the logarithm of the octanol-water partition coefficient (HPLClogD7.4)
Type: physicochemical
details: pH 7.4, HPLC-based assay; mean ± SEM of three independent experiments
# chromatographic logD per entry
Just the number, please.

CCSC(=O)c1c(CC)nc(-c2ccccc2)c(C(=O)OCCF)c1CC    4.04
CCOC(=O)c1c(-c2ccccc2)nc(CC)c(C(=O)SCCF)c1CC    4.05

Attention now shifts to the item below.
Form field: reported chromatographic logD of CCc1nc(-c2ccccc2)c(C(=O)OCCF)c(CC)c1C(=O)SCCF
3.95
